Molecular target: human PAD4 (Homo sapiens (Human))
Test: In Vitro PAD4 BAEE Biochemical Assay
Conditions: recombinant PAD4 5 nM, 2 mM calcium chloride, 3 mM BAEE substrate; geometric mean of multiple experiments
Source text: The PCR product was ligated into linearized pET-SUMO vector (Invitrogen, Carlsbad, CA), which is part of the Champion™ pET SUMO Protein Expression System. […] The enzymatic activity of human PAD4 was monitored in a biochemical assay in the presence or absence of compounds using the small peptidyl arginine mimic BAEE (Nα-Benzoyl-L-arginine ethyl ester hydrochloride) as substrate. […] Levels of ammonia were monitored by using an amine coupling reaction and were indicative of PAD4 enzymatic activity. […]
pIC50: −log10 of the molar value.
QUANTITY_MEASURED: pIC50

Study these solved cases before continuing.
COc1cc(C(=O)N2C[C@H](N)[C@@H]3CC[C@H]2C3)cc2nc(-c3cc4ccc([C@@H](C)NC(=O)c5ccc(C#CC(C)(C)S(C)(=O)=O)nc5)nc4n3CC3CC3)n(C)c12 [Example 308]; 7.18
COc1cc(C(=O)N2C[C@H](N)[C@@H]3CC[C@H]2C3)cc2nc(-c3cc4ccc([C@@H](C)NC(=O)c5cnn(C6CC6)c5)nc4n3CC3CC3)n(C)c12 [Example 319]; 7.24
C[C@@H](NC(=O)C12CC(F)(C1)C2)c1ccc2cc(-c3nc4cc(C(=O)N5C[C@H](N)[C@@H]6CC[C@H]5C6)cc(F)c4n3C3CC3)n(CC3CC3)c2n1 [Example 219]; 7.10
C[C@@H](NC(=O)c1cnn(C2CC2)c1)c1ccc2cc(-c3nc4cc(C(=O)N5C[C@H](N)[C@@H]6CC[C@H]5C6)cc(F)c4n3C3CC3)n(CC3CC3)c2n1 [Example 231]; 7.25

a. COc1cc(C(=O)N2C[C@H](N)[C@@H]3CC[C@H]2C3)cc2nc(-c3cc4ccc([C@@H](C)NC(=O)[C@]5(C)CC5(F)F)nc4n3CC3CC3)n(C)c12 [Example 331]
b. COc1cc(C(=O)N2C[C@H](N)[C@@H]3CC[C@H]2C3)cc2nc(-c3cc4ccc([C@@H](C)NC(=O)c5ccccc5C(F)(F)F)nc4n3CC3CC3)n(C)c12 [Example 292]
### Prompt When their pIC50 values are compared, which is larger, a or b ? Please respond with the label that marks your chosen entry.
### Response a
(a: 7.15, b: 6.89)

---

Target: human PAD4 (Homo sapiens (Human))
Assay: In Vitro PAD4 BAEE Biochemical Assay
Details: human PAD4, BAEE substrate; 5 nM PAD4, 2 mM calcium chloride, 3 mM BAEE; geometric mean of multiple experiments
QUANTITY_MEASURED: IC50 (nM)

CCCS(=O)(=O)N[C@H](C)c1ccc2cc(-c3nc4cc(C(=O)N5[C@H]6CC[C@@H]5[C@H](N)C6)cc(OC)c4n3C)n(CC3CC3)c2n1; 65.6
CCN(c1ccc2cc(-c3nc4cc(C(=O)N5CCC[C@@H](N)C5)cc(OC)c4n3C)n(CC3CC3)c2n1)S(=O)(=O)C1CC1; 82
COc1cc(C(=O)N2C[C@H](N)CCN2C)cc2nc(-c3cc4ccc([C@@H](C)NC(=O)C5CC(F)(F)C5)nc4n3CC3CC3)n(C)c12; 92.1

---

Molecular target: human PAD4 (Homo sapiens (Human), UniProt Q9UM07)
Sequence (Q9UM07 2-663): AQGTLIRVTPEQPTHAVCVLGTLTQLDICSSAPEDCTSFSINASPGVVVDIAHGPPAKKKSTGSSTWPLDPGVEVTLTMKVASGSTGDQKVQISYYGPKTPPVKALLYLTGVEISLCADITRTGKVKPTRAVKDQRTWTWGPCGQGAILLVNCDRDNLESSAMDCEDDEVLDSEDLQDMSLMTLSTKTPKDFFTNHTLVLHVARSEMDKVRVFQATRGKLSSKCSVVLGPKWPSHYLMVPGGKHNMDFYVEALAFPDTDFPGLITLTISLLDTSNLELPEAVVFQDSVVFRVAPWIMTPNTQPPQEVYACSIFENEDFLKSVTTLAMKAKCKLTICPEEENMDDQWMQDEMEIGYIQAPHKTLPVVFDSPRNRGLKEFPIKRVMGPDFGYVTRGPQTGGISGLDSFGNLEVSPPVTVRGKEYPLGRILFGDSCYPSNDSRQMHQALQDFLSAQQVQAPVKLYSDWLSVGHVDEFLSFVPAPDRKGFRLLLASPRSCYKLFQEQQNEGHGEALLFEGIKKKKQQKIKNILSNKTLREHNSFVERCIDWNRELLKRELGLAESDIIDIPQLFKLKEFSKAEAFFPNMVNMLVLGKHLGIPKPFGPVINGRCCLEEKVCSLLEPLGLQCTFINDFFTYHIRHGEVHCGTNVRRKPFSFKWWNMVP
Assay: In Vitro PAD4 BAEE Biochemical Assay
Conditions: human PAD4, BAEE substrate; 5 nM PAD4, 2 mM calcium chloride, 3 mM BAEE; geometric mean of multiple experiments
QUANTITY_MEASURED: IC50 (µM)

COc1cc(C(=O)N2C[C@H](N)[C@@H]3CC[C@H]2C3)cc2nc(-c3cc4ccc([C@@H](C)NC(=O)C56CC(C(F)(F)F)(C5)C6)nc4n3CC3CC3)n(C)c12; 0.127
COc1cc(C(=O)N2CCC[C@@H](N)C2)cc2nc(-c3cc4ccc([C@@H](C)NC(=O)c5ccccc5)nc4n3CC3CC3)n(C3CC3)c12; 0.0908

1. C[C@H]1CCCS(=O)(=O)N1c1ccc2cc(-c3nc4cc(C(=O)N5CCC[C@@H](N)C5)ccc4n3C3CC3)n(CC3CC3)c2n1
2. COc1cc(C(=O)N2C[C@H](N)CCN2C)cc2nc(-c3cc4ccc([C@@H](C)NC(=O)C(C)(C)c5ccccc5)nc4n3CC3CC3)n(C)c12
3. COc1cc(C(=O)N2C[C@H](N)CCN2C)cc2nc(-c3cc4ccc([C@@H](C)NC(=O)c5cc(F)cc(F)c5C)nc4n3CC3CC3)n(C)c12
4. COc1nccc(-c2ccccc2)c1-c1ccc2cc(-c3nc4cc(C(=O)N5C[C@H](N)CC[C@@H]5C)cc(OC)c4n3C)n(CC3CC3)c2n1
### Prompt List from greatest to least IC50. Enter labels, ranked according to the request.
### Response 4, 2, 3, 1
(4: 3.43 µM, 2: 0.229 µM, 3: 0.134 µM, 1: 0.0284 µM)

---

Target: human PAD4 (Homo sapiens (Human))
Test: In Vitro PAD4 BAEE Biochemical Assay
Settings: recombinant PAD4 5 nM, 2 mM calcium chloride, 3 mM BAEE substrate; geometric mean of multiple experiments
pIC50: −log10 of the molar value.
QUANTITY_MEASURED: pIC50

COc1cc(C(=O)N2C[C@H](N)[C@@H]3CC[C@H]2C3)cc2nc(-c3cc4ccc([C@@H](C)NC(=O)C(C)(C)C(F)F)nc4n3CC3CC3)n(C)c12; 7.07
[2H]C1([2H])[C@H](N)[C@@H]2CC[C@@H](C2)N1C(=O)c1cc(OC)c2c(c1)nc(-c1cc3ccc(C(C)NC(=O)C45CC(F)(C4)C5)nc3n1CC1CC1)n2C (stereo partly shown); 7.18
COc1cc(C(=O)N2C[C@H](N)[C@@H]3CC[C@H]2C3)cc2nc(-c3cc4ccc([C@@H](C)NC(=O)c5ccc(C(F)F)nc5)nc4n3CC3CC3)n(C)c12; 7.18
COc1cc(C(=O)N2C[C@H](N)[C@@H]3CC[C@H]2C3)cc2nc(-c3cc4ccc([C@@H](C)NC(=O)C5(OC)CC5)nc4n3CC3CC3)n(C)c12; 7.21
COc1cc(C(=O)N2C[C@H](N)[C@@H]3CC[C@H]2C3)cc2nc(-c3cc4ccc([C@@H](C)NC(=O)c5c(F)cccc5F)nc4n3CC3CC3)n(C)c12; 7.18
COc1cc(C(=O)N2C[C@H](N)[C@@H]3CC[C@H]2C3)cc2nc(-c3cc4ccc([C@@H](C)NC(=O)C(C)(C)F)nc4n3CC3CC3)n(C)c12; 7.04
COc1cc(C(=O)N2C[C@H](N)[C@@H]3CC[C@H]2C3)cc2nc(-c3cc4ccc([C@@H](C)NC(=O)[C@@]5(C)CC5(F)F)nc4n3CC3CC3)n(C)c12; 7.07

---

Biological target: UniProt Q9UM07
Test: In Vitro PAD4 BAEE Biochemical Assay
Conditions: human PAD4, BAEE substrate; 5 nM PAD4, 2 mM calcium chloride, 3 mM BAEE; geometric mean of multiple experiments
Let's look at some compounds and their measured IC50.
Expressed in nM, but write only the number.

Below: 2 compounds and their reported IC50.
COc1cc(C(=O)N2[C@H]3CC[C@@H]2[C@H](N)C3)cc2nc(-c3cc4ccc([C@@H](C)NS(=O)(=O)c5cnn(C)c5)nc4n3CC3CC3)n(C)c12 [Example 241]; 76.7
COc1cc(C(=O)N2C[C@H](N)CCN2C)cc2nc(-c3cc4ccc([C@@H](C)NC(=O)c5ccccc5C(F)(F)F)nc4n3CC3CC3)n(C)c12 [Example 196]; 129

### Prompt # input compound: COc1cccc(F)c1C(=O)N[C@H](C)c1ccc2cc(-c3nc4cc(C(=O)N5[C@H]6CC[C@@H]5[C@H](N)C6)cc(OC)c4n3C3CC3)n(CC3CC3)c2c1 [Example 149] ; wanted: its IC50
### Response 95.4

### Prompt Can you share its IC50? I mean this compound: COc1cc(C(=O)N2[C@@H]3CC[C@@H](N)[C@H]2CC3)cc2nc(-c3cc4ccc(N(C(C)C)S(C)(=O)=O)nc4n3CC3CC3)n(C)c12 [Example 85]
### Response 69.8

### Prompt Suppose we examine the compound COc1cc(C(=O)N2[C@H]3CC[C@@H]2[C@H](N)C3)cc2nc(-c3cc4ccc([C@@H](C)NC(=O)C5(OC)CC5)cc4n3CC3CC3)n(C3CC3)c12 [Example 147] ; what IC50 value has been reported?
### Response 78.9

---

Molecular target: human PAD4 (Homo sapiens (Human), UniProt Q9UM07)
Assay: In Vitro PAD4 BAEE Biochemical Assay
Conditions: human PAD4, BAEE substrate; 5 nM PAD4, 2 mM calcium chloride, 3 mM BAEE; geometric mean of multiple experiments
pIC50: −log10 of the molar value.
QUANTITY_MEASURED: pIC50

Completed entries (count: 4):
COc1cc(C(=O)N2[C@H]3CC[C@@H]2[C@H](N)C3)cc2nc(-c3cc4ccc([C@@H](C)NC(=O)C(C)(C)C)nc4n3CC3CC3)n(C3CC3)c12 [Example 127]; 7.20
COc1cc(C(=O)N2C[C@H](N)CC[C@@H]2C)cc2nc(-c3cc4ccc(N5CCCCC5=O)nc4n3CC3CC3)n(C)c12 [Example 272]; 6.11
COc1cc(C(=O)N2C[C@H](N)CCN2C)cc2nc(-c3cc4ccc([C@@H](C)NC(=O)C56CC(F)(C5)C6)nc4n3CC3CC3)n(C)c12 [Example 171]; 7.04
COc1cc(C(=O)N2C[C@H](N)CCN2C)cc2nc(-c3cc4ccc([C@@H](C)NC(=O)C56CC(C(F)(F)F)(C5)C6)nc4n3CC3CC3)n(C)c12 [Example 188]; 6.83

a. Cc1cc2c(cc1C(=O)N1CCC[C@@H](N)C1)nc(-c1cc3ccc(N(C(F)F)S(C)(=O)=O)nc3n1CC1CC1)n2C [Example 58]
b. COc1cc(C(=O)N2C[C@H](N)CCN2C)cc2nc(-c3cc4ccc([C@@H](C)NC(=O)C56CC(C)(C5)C6)nc4n3CC3CC3)n(C)c12 [Example 187]
c. COc1cc(C(=O)N2CCC[C@@H](N)C2)cc2nc(-c3cc4ccc(N(CC5CCC5)S(C)(=O)=O)nc4n3CC3CC3)n(C)c12 [Example 21]
d. COc1cc(C(=O)N2C[C@H](N)CC[C@@H]2C)cc2nc(-c3cc4ccc(-c5cccnc5N5CCOCC5)nc4n3CC3CC3)n(C)c12 [Example 261]
e. COc1cc(C(=O)N2C[C@H](N)CCN2C)cc2nc(-c3cc4ccc([C@@H](C)NC(=O)C5(C(F)(F)F)CC5)nc4n3CC3CC3)n(C)c12 [Example 192]
### Prompt Rank items: key pIC50, increasing. Please, when replying, give the labels in the order that was requested.
### Response c, a, d, e, b
(c: 4.30, a: 5.36, d: 6.34, e: 6.76, b: 7.01)

I. COc1cc(C(=O)N2C[C@H](N)CCN2C)cc2nc(-c3cc4ccc([C@@H](C)NC(=O)c5ncccc5C)nc4n3CC3CC3)n(C)c12 [Example 175]
II. COc1cc(C(=O)N2CCC[C@@H](N)[C@H]2C)cc2nc(-c3cc4ccc(N(C)S(C)(=O)=O)nc4n3C3CC3)n(CC3CC3)c12 [Example 49]
### Prompt Hello, I am sorting some records. Could you say if I or II has the smaller pIC50 value? I would appreciate it if you answered with the label of your choice.
### Response II
(II: 6.31, I: 6.86)
